# Tested on: Enterococcus faecium
# Measurement notes: Antibacterial activity against Enterococcus faecium 10-6 after 18 to 24 hrs by NCCLS method
# Type: functional
Known MIC of a selection of compounds
Field: numeric (µg/mL). Do not append units.

Enterococcus faecium MIC of `COc1cc(Br)c(CN2CCN(c3cc4c(cc3F)c(=O)c(C(=O)O)cn4C3CC3)CC2)cc1OC` is 8

---

# System: Klebsiella pneumoniae
# Measurement notes: Antibacterial activity against extended spectrum beta-lactamases producing Klebsiella pneumoniae 10-3 after 18 to 24 hrs by NCCLS method
# Format: functional
Catalogue of MIC values

# compound `COc1ccc(OC)c(CN2CCN(c3cc4c(cc3F)c(=O)c(C(=O)O)cn4C3CC3)CC2)c1` ; its MIC = > 128 µg/mL

More entries:
MIC reading for `COc1ccc(CN2CCN(c3cc4c(cc3F)c(=O)c(C(=O)O)cn4C3CC3)CC2)cc1OC` : > 128 µg/mL

The recorded MIC for entry `COc1cc(Br)c(CN2CCN(c3cc4c(cc3F)c(=O)c(C(=O)O)cn4C3CC3)CC2)cc1OC` equals > 128 µg/mL

---

# Test system: Mycobacterium tuberculosis
# Measurement notes: Antimycobacterial activity against Mycobacterium tuberculosis H37Rv ATCC 27294 by microplate alamar blue assay
# Type: functional
Classify: fulfilled when MIC is strictly less than 2 µg/mL; not fulfilled when MIC is not.

Example entries begin here.
Is 2 µg/mL strictly greater than the compound's reported MIC? compound: `O=C(O)c1cn(C2CC2)c2cc(N3CCN(Cc4ccccc4)CC3)c(F)cc2c1=O` fulfilled

I wonder whether `COc1cc(CN2CCN(c3cc4c(cc3F)c(=O)c(C(=O)O)cn4C3CC3)CC2)ccc1OCc1ccccc1` has MIC below 2 µg/mL. Can you tell? not fulfilled

Quick check: MIC of `COc1ccc(CN2CCN(c3cc4c(cc3F)c(=O)c(C(=O)O)cn4C3CC3)CC2)cc1OC` under 2 µg/mL? not fulfilled

Quick check: does `COc1ccc(CN2CCN(c3cc4c(cc3F)c(=O)c(C(=O)O)cn4C3CC3)CC2)cc1` have MIC under 2 µg/mL? fulfilled

Determine if `COc1cc(CN2CCN(c3cc4c(cc3F)c(=O)c(C(=O)O)cn4C3CC3)CC2)cc(OC)c1OC` shows MIC strictly lower than 2 µg/mL. not fulfilled

Continuing:
For this compound, is MIC lower than 2 µg/mL? O=C(O)c1cn(C2CC2)c2cc(N3CCNCC3)c(F)cc2c1=O [CIPROFLOXACIN] fulfilled

In plain terms, does `O=C(O)c1cn(C2CC2)c2cc(N3CCN(Cc4ccc(OCc5ccccc5)cc4)CC3)c(F)cc2c1=O` come in under 2 µg/mL for MIC? not fulfilled

---

# System: Escherichia coli
# Measurement notes: Antibacterial activity against Escherichia coli 10-3 after 18 to 24 hrs by NCCLS method
# Type: functional
Reported metric: MIC

Reported MIC ( `COc1cc(Br)c(CN2CCN(c3cc4c(cc3F)c(=O)c(C(=O)O)cn4C3CC3)CC2)cc1OC` ) = > 128 µg/mL

Lab note: `O=C(O)c1cn(C2CC2)c2cc(N3CCN(Cc4ccc(OCc5ccccc5)cc4)CC3)c(F)cc2c1=O` gave MIC of > 128 µg/mL

Further cases:
Notebook: `COc1cc(CN2CCN(c3cc4c(cc3F)c(=O)c(C(=O)O)cn4C3CC3)CC2)cc(OC)c1` , MIC read as > 128 µg/mL
